target: UniProt P08913; test: cell-based
Sequence (P08913 whole entry): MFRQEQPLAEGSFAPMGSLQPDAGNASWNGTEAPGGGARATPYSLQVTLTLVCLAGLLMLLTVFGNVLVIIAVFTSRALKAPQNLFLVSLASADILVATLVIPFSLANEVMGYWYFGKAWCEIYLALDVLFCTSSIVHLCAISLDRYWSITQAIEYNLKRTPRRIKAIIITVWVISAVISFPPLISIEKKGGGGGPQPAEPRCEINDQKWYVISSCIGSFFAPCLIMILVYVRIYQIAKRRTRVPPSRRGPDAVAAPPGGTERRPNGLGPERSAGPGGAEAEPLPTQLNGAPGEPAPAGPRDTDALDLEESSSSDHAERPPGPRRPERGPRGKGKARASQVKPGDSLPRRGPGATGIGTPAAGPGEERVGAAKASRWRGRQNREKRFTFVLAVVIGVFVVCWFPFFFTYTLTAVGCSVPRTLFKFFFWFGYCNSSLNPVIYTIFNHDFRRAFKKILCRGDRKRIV
Structures can show the parent of a compound that is named as a salt.
attribute measured: IC50

Reference set, count: 5
IC50 lookup needed for O=C1C(c2ccccc2)CCN1[C@H]1CCCN(C[C@H]2COc3ccccc3O2)C1 (some centres unmarked) [example 31] , thanks. > 10 µM

IC50 lookup needed for CC(=O)N1CCC(N2C(=O)C(=O)N([C@H]3CCCN(C[C@H]4COc5ccccc5O4)C3)C2=O)CC1 [example 139] , thanks. 9.83 µM

IC50 lookup needed for Cc1ccc2c(c1)CN([C@H]1CCCN(C[C@H]3COc4ccccc4O3)C1)C2=O [example 59, formate] , thanks. > 10 µM

IC50 lookup needed for O=c1[nH]c2cc(F)ccc2n1[C@H]1CCCN(C[C@H]2COc3ccccc3O2)C1 [example 88] , thanks. > 10 µM

IC50 lookup needed for O=C1c2cncnc2CN1[C@H]1CCCN(C[C@H]2COc3ccccc3O2)C1 [example 23] , thanks. > 10 µM

Next molecule, please.
IC50 lookup needed for CC(C)(C)N1CC(=O)N([C@H]2CCCN(C[C@H]3COc4ccccc4O3)C2)C1=O [example 117] , thanks. > 10 µM
